System: Nicotinate mononucleotide adenylyltransferase NadD (Staphylococcus aureus N315)
Assay: S. aureus NadD enzyme activity blockers – biochemical, colorimetric, single concentration, confirmation (AID 624309)
Conditions: purified S. aureus NadD, colorimetric enzyme assay; at 20 µM
In all, about 2,000 compounds went through this assay and about 260 (13%) were called active. Cut-off read from the data, not from the text of the source: active = inhibition mostly above about 42% (no sharp cut-off); inactive = mostly below about 42%. A selection follows.
Form entry, call: pick from active, inactive

Solved entries:
1. COc1ccc(C(=O)Nc2cccc(/C=C(/CCC(=O)O)c3nc4ccccc4s3)c2)cc1; inactive
2. COc1ccc(Cl)cc1C(=O)NNC(=S)NC(=O)/C=C/c1ccco1; inactive
3. CCCCCCc1cc2cc(-c3nnc(-c4ccccc4)o3)c(=O)oc2cc1O; inactive

Inquiry: For this compound, state the assay outcome: C#Cc1cc(N2CCN(C(=O)c3ccoc3)CC2)n2nc(-c3cccc(Cl)c3)cc2n1
Reply text: inactive

###

Tested on: Nicotinate mononucleotide adenylyltransferase NadD (Staphylococcus aureus N315)
Assay: S. aureus NadD enzyme activity blockers – biochemical, colorimetric, single concentration, confirmation (AID 624309)
Conditions: purified S. aureus NadD, colorimetric enzyme assay; at 20 µM; hits give high values
Screen size: about 2,000 compounds; about 260 (13%) were called active. A selection follows.
Classification field: enter 1 (yes) for inhibition values not below 20%, 0 (no) for values below it.

For orientation, consider the following solved cases.
1. COc1ccc(C2=NN(C(=O)CSc3nc(=O)n4ccc(C)cc4n3)C(c3ccc(C)cc3)C2)cc1 (stereo not given); 0 (no)
2. CC(=O)Nc1ccc(Nc2cc(C)nc(Nc3ccc(NC(C)=O)cc3)n2)cc1; 0 (no)
3. Cc1ccc(Nc2nc(-c3sc(NC(=O)c4ccccc4)nc3C)cs2)cc1; 1 (yes)
4. NNc1cccc(C=Cc2ccccc2)cc1=O; 1 (yes)

Inquiry: API: above_or_equal(metric=inhibition, cutoff=20%) for item CCOc1cc(/C=C2/N=C(c3ccc(C(C)(C)C)cc3)OC2=O)cc(Cl)c1OS(C)(=O)=O
Reply text: 0 (no)

###

Provide the recorded inhibition for the entries that follow.
System: Nicotinate mononucleotide adenylyltransferase NadD (Staphylococcus aureus N315)
Test: S. aureus NadD enzyme activity blockers – biochemical, colorimetric, single concentration, confirmation (AID 624309)
Details: purified S. aureus NadD, colorimetric enzyme assay; at 20 µM; hits give high values
Screen size: about 2,000 compounds; about 260 (13%) were called active. The list is a sample of the results.

1. Cc1nn(-c2ccccc2)c(C)c1/C=N/NC(=O)CSc1nc2ccccc2c(=O)n1-c1ccccc1; 8.17% (inactive)
2. NS(=O)(=O)c1ccc(NC(=O)COC(=O)c2c3c(nc4ccccc24)/C(=C\c2ccc4c(c2)OCO4)CCC3)cc1; 74.4% (active)
3. CCOc1ccc2nc(/N=C/c3nc(-c4ccccc4)oc3O)sc2c1; 5.96% (inactive)

Give measured inhibition for every item shown.
1. NC(=O)c1ccc(NC(=O)COC(=O)c2c3c(nc4ccccc24)/C(=C\c2ccc4c(c2)OCO4)CCC3)cc1
2. CCOc1ccc(-c2n[nH]c(=S)n2/N=C/c2cc3c(cc2[N+](=O)[O-])OCO3)cc1
3. O=C(NC(Cc1c[nH]c2ccccc12)C(=O)N/N=C/c1ccc(Br)cc1)c1cccs1 (centres undefined)

Reply text:
45.2% (inactive)
4.81% (inactive)
25.7% (inactive)

Your task in this section: give inhibition for each listed record.
1. CCOc1ccc2nc(N3CCCN(C(=O)Nc4ccccc4C)CC3)c(C#N)cc2c1
2. CC1(OC(=O)C2CCCC2)C(=O)C=C2C=C(c3ccc(C#N)cc3)OC=C2C1=O (centres undefined)
3. O=C(CSc1nnc(-c2cccnc2)n1Cc1ccco1)c1ccc(Cl)c(Cl)c1

Reply text:
["-3.08% (inactive)", "73.5% (active)", "32.6% (inactive)"]
